- Assay info: Stability of peptides in simulated gastric fluid (pH 1.5; HCl, NaCl and Pepsin)
- Assay type: in vitro ADME
- Condition label: simulated gastric fluid, 24 h, 2 μM, pH 1.5
Where a SMILES comes first, the peptide text is derived from it. [ ]: non-standard residue; d: D form. ξ: configuration not given here. ξαMePhe(2,6-F2) = CC(N)(Cc1c(F)cccc1F)C(=O)O; ξαMePhe(2-F) = CC(N)(Cc1ccccc1F)C(=O)O; hArg = N=C(N)NCCCC[C@H](N)C(=O)O; hCit = NC(=O)NCCCC[C@H](N)C(=O)O; Nle = CCCC[C@H](N)C(=O)O; ξαMeP = CC1(C(=O)O)CCCN1; Ac5c = NC1(C(=O)O)CCCC1; Ac3c = NC1(C(=O)O)CC1; Aib = CC(C)(N)C(=O)O
Observation type: % degradation of peptides in 24 h when incubated with simulated gastric fluid (%)
A number alone suffices; assume %.

{"Compound": "CCCC[C@H](NC(=O)C(C)(Cc1c(F)cccc1F)NC(=O)[C@H](CCC(N)=O)NC(=O)[C@@H](NC(=O)[C@H](CCC(=O)O)NC(=O)C(C)(C)NC(=O)[C@@H](NC(=O)C1(N)CC1)C(C)C)[C@@H](C)CC)C(=O)N[C@@H](Cc1c[nH]cn1)C(=O)N[C@@H](CCC(N)=O)C(=O)N[C@@H](CCCCNC(=N)N)C(=O)N1CCCC1(C)C(=O)N[C@@H](CCCCN)C(=O)NC(C)(Cc1ccccc1F)C(N)=O (stereo partly shown) [Seq. ID. 75] (H-[Ac3c]V[Aib]EIQ[ξαMePhe(2,6-F2)][Nle]HQ[hArg][ξαMeP]K[ξαMePhe(2-F)]-NH2)", "Measure unit": "%", "Observed measurement": 100}
{"Compound": "CCCC[C@H](NC(=O)C(C)(Cc1c(F)cccc1F)NC(=O)[C@H](CCC(N)=O)NC(=O)[C@@H](NC(=O)[C@H](CCC(=O)O)NC(=O)C(C)(C)NC(=O)[C@@H](NC(=O)C(C)(C)N)C(C)C)[C@@H](C)CC)C(=O)N[C@@H](Cc1c[nH]cn1)C(=O)N[C@@H](CCC(N)=O)C(=O)N[C@@H](CCCCNC(N)=O)C(=O)NC(C)(C)C(=O)NC(C)(C)C(=O)NC(C)(Cc1ccccc1F)C(N)=O (stereo partly shown) [Seq. ID. 430] (H-[Aib]V[Aib]EIQ[ξαMePhe(2,6-F2)][Nle]HQ[hCit][Aib][Aib][ξαMePhe(2-F)]-NH2)", "Measure unit": "%", "Observed measurement": 45}
{"Compound": "CCCC[C@H](NC(=O)C(C)(Cc1ccccc1F)NC(=O)[C@H](CCC(N)=O)NC(=O)[C@@H](NC(=O)[C@H](CCC(=O)O)NC(=O)C(C)(C)NC(=O)[C@@H](NC(=O)C(C)(C)N)C(C)C)[C@@H](C)CC)C(=O)N[C@@H](Cc1c[nH]cn1)C(=O)N[C@@H](CCC(N)=O)C(=O)N[C@@H](CCCCNC(=N)N)C(=O)N[C@@H](C)C(=O)NC(C)(C)C(=O)NC(C)(Cc1ccccc1F)C(N)=O (stereo partly shown) [Seq. ID. 161] (H-[Aib]V[Aib]EIQ[ξαMePhe(2-F)][Nle]HQ[hArg]A[Aib][ξαMePhe(2-F)]-NH2)", "Measure unit": "%", "Observed measurement": 14}

Could you now consider this next compound?
Note down % degradation of peptides in 24 h when incubated with simulated gastric fluid recorded for CCCC[C@H](NC(=O)C(C)(Cc1ccccc1F)NC(=O)[C@H](CCC(N)=O)NC(=O)[C@@H](NC(=O)[C@H](CCC(=O)O)NC(=O)C1(NC(=O)[C@@H](NC(=O)C(C)(C)N)C(C)C)CCCC1)[C@@H](C)CC)C(=O)N[C@@H](Cc1c[nH]cn1)C(=O)N[C@@H](CCC(N)=O)C(=O)N[C@@H](CCCCNC(=N)N)C(=O)N1CCCC1(C)C(=O)N[C@@H](CCCCN)C(=O)NC(C)(Cc1ccccc1F)C(N)=O (stereo partly shown) [Seq. ID. 62] (H-[Aib]V[Ac5c]EIQ[ξαMePhe(2-F)][Nle]HQ[hArg][ξαMeP]K[ξαMePhe(2-F)]-NH2)
00
